Tested on: Leishmania donovani
Test: DNDI: Inhibition of formation of Leishmania donovani (strain MHOM/ET/67/L82) axenic amastigotes, in vitro.
Type: functional, organism-based
Param label: returns Fulfilled when IC50 < 10 µg/mL, returns Not fulfilled otherwise, including exact equality.

Use the examples below as a reference point.
Dear colleague, could you confirm whether IC50 of CCCCCC(C)NCc1coc(-c2ccc(OCCCC)cc2)n1 (centres undefined) falls below 10 µg/mL? Thanks.
Fulfilled

// next record `COc1ccccc1/C(=N/O)NC1CCCCC1`
Not fulfilled

Continuing:
Lab note: IC50 threshold 10 µg/mL. Does this compound come in strictly under it? CCCCCC(C)NCc1coc(-c2ccc(C(C)(C)C)cc2)n1 (centres undefined)
Fulfilled

Then `O/N=C(/NC1CCCCC1)c1cccnc1Oc1ccccc1` ?
Not fulfilled

Could you do the same for CCCCCC(C)NCc1coc(-c2ccc(Br)cc2)n1 (centres undefined) , please?
Not fulfilled

Entry to check: CCCCCC(C)NCc1coc(-c2ccc(C)cc2)n1 (centres undefined)
Not fulfilled

Same lookup for CCCCCC(C)NCc1coc(-c2ccc(Cl)cc2)n1 (centres undefined) , please.
Not fulfilled

What do you have for `O/N=C1/CCCCCN1` ?
Not fulfilled

Could you do the same for CCCCCC(C)NCc1coc(-c2ccc(OC)cc2)n1 (centres undefined) , please?
Not fulfilled

What about `COc1ccc(/C(=N/O)NC2CCCCC2)cc1` ?
Not fulfilled

* * *

Assay: DNDI: in vitro intrinsic clearance in mouse liver microsomes at a concentration of 10uM
Format: ADME, Microsome
Details: read-out: CLint in vitro
Listed compounds paired with reported log10(microsomal CLint at 10 µM)
The common logarithm of microsomal CLint at 10 µM in µL/min/mg is what is listed.

These recorded examples may help you get a feel for the data.
Find the recorded log10(microsomal CLint at 10 µM) belonging to CCCCCC(C)NCc1coc(-c2ccc(CCCC)cc2)n1 (stereo not drawn) and report it.
1.20

Repeat for the following compound: CCCCCC(C)NCc1coc(-c2ccc(OC(C)C)cc2)n1 (stereo not drawn)
1.56

Also `O/N=C(\NC1CCCCC1)c1ccccc1` , if possible.
1.91

***
Data request, read-out log10(microsomal CLint at 10 µM), for `COc1cccc(/C(=N/O)NC2CCCCC2)c1`
2.62

CCCCCC(C)NCc1coc(-c2cccc(Cl)c2)n1 (stereo not drawn) ?
1.45

* * *

Assay: DNDI: Cytotoxicity against L929 mouse fibroblasts, 72 hour.
Type: toxicity, cell-based
Settings: mouse, L929 mouse fibroblasts
# maps each entry to its log10(IC50 at 72 h)
Record value = log10 of IC50 at 72 h given in µg/mL.

What does the data say about its log10(IC50 at 72 h)? Entry: `Cc1ccc(/C(=N/O)Nc2cccc(F)c2)c(Oc2ccc(C(C)(C)C)cc2)n1`
0.73

---
Query (molecule): CCCCCC(C)NCc1csc(-c2ccccc2)n1 (centres undefined) ; field requested: log10(IC50 at 72 h)
0.65

What would you report for CCCCCC(C)NCc1coc(-c2cccc(OCC)c2)n1 (centres undefined) ?
0.83

* * *

Experiment: DNDI: in vitro intrinsic clearance in human liver microsomes at a concentration of 10uM
Assay type: ADME, Microsome
attributeMeasured: log10 CLint in vitro (log10 of the value in µL/min/mg)
Note the log scale: values are log10 of CLint in vitro expressed in µL/min/mg.

Use these answered entries as a reference point.
Looking for the measured log10 CLint in vitro of `CCc1ccccc1Oc1ncccc1/C(=N\O)NC1CCCCC1` , can you help?
1.43

Query `COc1cccc(/C(=N/O)NC2CCCCC2)c1` next
1.11

Next up: `O/N=C(\NC1CCCCC1)c1ccccc1`
1.00

Okay, and CCCCCC(C)NCc1ccc(-c2ccccc2)cc1 (centres undefined) ?
1.40

Moving on to `O/N=C(/NC1CCCCC1)c1cccnc1Oc1ccccc1F`
1.20

Further cases:
Fill in the blank: the reported log10 CLint in vitro of `COc1ccccc1/C(=N/O)NC1CCCCC1` is ____.
1.36

// next record `O/N=C(\NC1CCCC1)c1ccccc1-c1ccccc1`
1.04

Same again, this time with CCOc1ccc(-c2nc(CNC3C[C@@H]4C[C@H]([C@H]3C)C4(C)C)co2)cc1 (some centres undefined)
1.23

Also CCCCCC(C)NCc1coc(-c2ccc(-c3ccccc3)cc2)n1 (centres undefined) , if possible.
0.00

Next up: `O/N=C(\NCC1CC1)c1ccccc1-c1ccccc1`
0.70

Item: CCCCCC(C)NCc1coc(-c2ccc(CCCC)cc2)n1 (centres undefined)
1.48

Subsequent entry: CCCCCC(C)NCc1coc(-c2ccc(OCCCC)cc2)n1 (centres undefined)
1.45

Now the same for CCCCCC(C)NCc1coc(-c2ccc(OC(C)C)cc2)n1 (centres undefined)
1.57

Same thing, different compound: CCCCCC(C)NCc1coc(-c2ccc(OCC)cc2)n1 (centres undefined)
1.52

src = ChEMBL document CHEMBL1857833
